measurement_protocol: Cytotoxicity against mouse L929 cells assessed as inhibition of cell proliferation by MTT assay
Format: toxicity, cell-based
readout_label: IC50 (µM)
Value expressed in µM; do not type the unit.

Recorded IC50 (compound CC1(C)CCC[C@](C)([C@@H]2CC[C@]3(C)[C@@H]2[C@H](O)CC2[C@@]4(C)CC[C@H](OC(=O)CSc5nc(-c6cccc(Br)c6)c(C#N)c(=O)[nH]5)C(C)(C)[C@@H]4CC[C@]23C)O1 (some centres not stated) ): 70.3

---

System: PC-3
measurement_protocol: Antiproliferative activity against human PC-3 cells assessed as inhibition of cell proliferation by MTT assay
Format: functional, cell-based
readout_label: IC50 (µM)
Value expressed in µM; do not type the unit.

IC50 for PC-3 with input Cc1cccc(-c2nc(SCC(=O)O[C@H]3CC[C@@]4(C)[C@@H](CC[C@]5(C)[C@H]4C[C@@H](O)[C@@H]4[C@H]([C@@]6(C)CCCC(C)(C)O6)CC[C@]45C)C3(C)C)[nH]c(=O)c2C#N)c1 equals 17

IC50 for PC-3 with input CC1(C)CCC[C@](C)([C@@H]2CC[C@]3(C)[C@@H]2[C@H](O)C[C@@H]2[C@@]4(C)CC[C@H](OC(=O)CSc5nc(-c6ccccc6)c(C#N)c(=O)[nH]5)C(C)(C)[C@@H]4CC[C@]23C)O1 equals 9.82
